This collection of values is drawn from ChEMBL document CHEMBL1138093.

# Ki per entry for 5-hydroxytryptamine receptor 2A (Rattus norvegicus, UniProt P14842)
The reply should be a number in nM, with the unit left off.

# annotated cases, reported Ki shown
MOLECULE	PARAMETER MEASURED	UNIT ABBREVIATION	VALUE REPORTED
COc1cc2c(c(OC)c1OC)CC[C@@H]2CN	Ki	nM	1120
COc1cc2c(c(OC)c1OC)CC[C@H]2CN	Ki	nM	69

Q: Can you look up Ki on 5-hydroxytryptamine receptor 2A (Rattus norvegicus, UniProt P14842) for COc1cc2c(c(OC)c1OC)CCC2CN (racemic) ?
A: 130

Q: Can you look up Ki on 5-hydroxytryptamine receptor 2A (Rattus norvegicus, UniProt P14842) for COc1cc(CCN)cc(OC)c1OC ?
A: 360
